Molecular target: human CYP11B2 (Homo sapiens (Human), UniProt P19099)
Sequence (P19099 25-503): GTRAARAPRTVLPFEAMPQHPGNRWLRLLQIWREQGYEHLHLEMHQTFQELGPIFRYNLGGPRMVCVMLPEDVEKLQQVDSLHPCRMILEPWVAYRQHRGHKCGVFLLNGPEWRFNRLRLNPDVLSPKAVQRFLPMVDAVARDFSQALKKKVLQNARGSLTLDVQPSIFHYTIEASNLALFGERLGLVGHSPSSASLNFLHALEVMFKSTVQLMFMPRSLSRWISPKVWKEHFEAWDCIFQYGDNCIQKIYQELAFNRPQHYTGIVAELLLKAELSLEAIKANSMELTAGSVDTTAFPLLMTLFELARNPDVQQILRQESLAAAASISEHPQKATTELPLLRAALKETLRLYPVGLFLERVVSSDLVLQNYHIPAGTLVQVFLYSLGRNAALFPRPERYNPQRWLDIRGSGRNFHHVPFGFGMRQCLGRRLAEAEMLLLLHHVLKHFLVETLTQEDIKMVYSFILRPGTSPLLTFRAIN
Assay: V79-Human-CYP11B2 cell assay
Type: cell-based
Conditions: V79 cells expressing human CYP11B2; 125 nM 11-deoxycorticosterone; aldosterone by HTRF
pIC50: −log10 of the molar value.
pIC50 of 7 or higher: true (1). Under 7: false (0).

Completed entries (count: 4):
CC(=O)N1CCc2cc(-c3cncc(F)c3)cc(Cl)c21	true (1)
CC(=O)N1CCc2cc(-c3cccnc3)c(F)cc21	false (0)
CC(=O)N1CCc2cc(-c3cncc(F)c3C)cc(F)c21	true (1)
CC(=O)N1CCc2cc(-c3cncc(C#N)c3C)cc(F)c21	true (1)

Exam item: decide whether the reported pIC50 for "CC(=O)N1CCc2cc(-c3cncc([C@](C)(O)C(F)(F)F)c3)cc(Cl)c21" is at least 7.
true (1)

Exam item: decide whether the reported pIC50 for "CC(=O)N1CCc2cc(-c3cncc(F)c3)cc(F)c21" is at least 7.
true (1)

Exam item: decide whether the reported pIC50 for "CC(=O)N1CCc2cc(-c3cncc([C@@](C)(O)C(F)(F)F)c3)cc(Cl)c21" is at least 7.
true (1)

Exam item: decide whether the reported pIC50 for "CC(=O)N1CCc2cc(-c3cccnc3)cc(Cl)c21" is at least 7.
true (1)

Exam item: decide whether the reported pIC50 for "CC(=O)N1CCc2cc(-c3cncc([C@@](C)(O)C(F)(F)F)c3)cc(F)c21" is at least 7.
true (1)

###

Target: human CYP11B2 (Homo sapiens (Human), UniProt P19099)
Assay: V79-Human-CYP11B2 cell assay, modified protocol
Assay type: cell-based
Details: V79 cells expressing human CYP11B2
endpointName: pIC50
In textbook form, pIC50 equals minus log to base ten of the concentration in mol/L.

The following molecules have reported results that may help.
CC(=O)n1ccc2cc(-c3cccnc3)ccc21	7.64
CCC(=O)N1CCc2cc(-c3cccnc3)ccc21	6.64

For human CYP11B2 (Homo sapiens (Human), UniProt P19099), give the measured pIC50 of the entry "O=C(Cc1ccccc1)N1CCc2cc(-c3cccnc3)ccc21"
5.51

###

Molecular target: human CYP11B1 (Homo sapiens (Human))
Sequence (P15538 25-503): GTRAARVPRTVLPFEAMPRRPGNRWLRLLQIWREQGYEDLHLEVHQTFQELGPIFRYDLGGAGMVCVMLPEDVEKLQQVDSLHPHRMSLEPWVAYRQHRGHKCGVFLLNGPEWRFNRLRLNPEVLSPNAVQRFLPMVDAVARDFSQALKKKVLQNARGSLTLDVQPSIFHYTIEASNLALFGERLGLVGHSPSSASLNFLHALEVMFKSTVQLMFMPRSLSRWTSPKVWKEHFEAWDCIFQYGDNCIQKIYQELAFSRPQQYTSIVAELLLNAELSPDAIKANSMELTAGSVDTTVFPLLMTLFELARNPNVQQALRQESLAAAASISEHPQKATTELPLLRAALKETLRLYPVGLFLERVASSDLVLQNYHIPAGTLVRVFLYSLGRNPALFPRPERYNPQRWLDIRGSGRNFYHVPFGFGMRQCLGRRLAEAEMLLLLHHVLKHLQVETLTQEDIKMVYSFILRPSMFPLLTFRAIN
Assay: V79-Human-CYP11B1 cell assay, modified protocol
Type: cell-based
Conditions: V79 cells expressing human CYP11B1
Collected pIC50 values appear next to each entry.
In textbook form, pIC50 equals minus log to base ten of the concentration in mol/L.

For human CYP11B1 (Homo sapiens (Human)), give the measured pIC50 of the entry CCC(=O)N1CCc2cc(-c3cncc4ccccc34)ccc21 [Example 29]
6.29

For human CYP11B1 (Homo sapiens (Human)), give the measured pIC50 of the entry COc1cncc(-c2ccc3c(c2)CCN3C(C)=O)c1 [Example 54]
6.10

For human CYP11B1 (Homo sapiens (Human)), give the measured pIC50 of the entry CC(=O)N1CCc2cc(-c3cnccc3C)ccc21 [Example 58]
6.44

For human CYP11B1 (Homo sapiens (Human)), give the measured pIC50 of the entry O=C(C1CC1)N1CCc2cc(-c3cncc4ccccc34)ccc21 [Example 31]
5.22

For human CYP11B1 (Homo sapiens (Human)), give the measured pIC50 of the entry CC(=O)n1ccc2cc(-c3cccnc3)ccc21 [Example 50, 1-Acetyl-5-pyridin-3-yl-1H-indole]
5.86

For human CYP11B1 (Homo sapiens (Human)), give the measured pIC50 of the entry CC(=S)N1CCc2cc(-c3cccnc3)ccc21 [Example 34]
5.47

For human CYP11B1 (Homo sapiens (Human)), give the measured pIC50 of the entry CCC(=O)N1CCc2cc(-c3cccnc3)ccc21 [Example 21]
5.32

Data provenance is patent US9745282B2.
